Entries with reported Ki on 5-hydroxytryptamine 1D receptor (Bos taurus, UniProt Q8MI13)
Sequence (Q8MI13 whole entry): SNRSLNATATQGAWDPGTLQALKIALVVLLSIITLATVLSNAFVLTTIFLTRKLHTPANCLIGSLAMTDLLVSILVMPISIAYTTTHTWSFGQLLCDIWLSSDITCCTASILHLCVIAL
Your answer should be a plain number; it is taken to be in µM.

Worked set:
| Molecule | Output unit | Ki |
| --- | --- | --- |
| Fc1ccc([C@@H]2CCNC[C@H]2COc2ccc3c(c2)OCO3)cc1 | µM | 4.9 |
| CNCC[C@@H](Oc1ccc(C(F)(F)F)cc1)c1ccccc1 | µM | 3.89 |
| CNCC[C@@H](Oc1ccc(C(F)(F)F)cc1)c1ccccc1 [Prozac] | µM | 4.27 |

Now, please, on to the next molecule.
Looking up "c1ccc2c(CCC3CCNCC3)c[nH]c2c1" , I see its Ki listed as 3.63
